This section presents molecules with their documented IC50 values.
Target Desc: Human Calpain 1/NS1 (Homo sapiens)
Sequence (P07384 1-714): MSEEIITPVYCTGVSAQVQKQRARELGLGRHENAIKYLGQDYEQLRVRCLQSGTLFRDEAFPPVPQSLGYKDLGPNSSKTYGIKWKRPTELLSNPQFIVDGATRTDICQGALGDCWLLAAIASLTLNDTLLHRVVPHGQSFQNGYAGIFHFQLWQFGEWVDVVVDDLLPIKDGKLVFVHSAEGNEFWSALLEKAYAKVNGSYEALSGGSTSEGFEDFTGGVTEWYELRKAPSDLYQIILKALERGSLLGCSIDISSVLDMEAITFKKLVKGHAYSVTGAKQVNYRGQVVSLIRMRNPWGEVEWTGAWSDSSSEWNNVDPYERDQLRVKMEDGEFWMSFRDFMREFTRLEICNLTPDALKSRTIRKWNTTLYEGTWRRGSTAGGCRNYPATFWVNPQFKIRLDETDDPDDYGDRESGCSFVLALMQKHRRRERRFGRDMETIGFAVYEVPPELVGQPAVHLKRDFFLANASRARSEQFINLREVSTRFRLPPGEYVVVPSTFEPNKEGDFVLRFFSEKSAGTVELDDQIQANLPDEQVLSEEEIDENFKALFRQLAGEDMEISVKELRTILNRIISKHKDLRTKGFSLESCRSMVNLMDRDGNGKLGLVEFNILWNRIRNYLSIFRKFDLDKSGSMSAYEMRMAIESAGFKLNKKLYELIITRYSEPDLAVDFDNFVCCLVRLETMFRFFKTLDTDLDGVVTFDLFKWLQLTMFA
Sequence (P04632 1-268 partner): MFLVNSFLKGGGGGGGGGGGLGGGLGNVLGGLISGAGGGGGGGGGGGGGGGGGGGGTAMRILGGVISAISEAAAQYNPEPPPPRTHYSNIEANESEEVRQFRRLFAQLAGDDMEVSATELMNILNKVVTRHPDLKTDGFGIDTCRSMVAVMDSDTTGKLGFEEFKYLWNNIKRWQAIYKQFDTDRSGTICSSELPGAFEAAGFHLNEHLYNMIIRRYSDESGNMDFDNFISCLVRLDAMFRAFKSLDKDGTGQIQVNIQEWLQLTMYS
Assay Remarks: Biochemical inhibition of calpain 1, continuous fluorescence (FRET substrate) assay
Reported Conditions: mean, read-out: Human Calpain 1/NS1 IC50 (nM)_MEAN

> print(dat)
                                   molecule                         target.desc  measured.value
1  CN(C)CCCNC(=O)C(=O)C1CCCCOCCOCc2ccccc2C(=O)N1 (centres unmarked)  Human Calpain 1/NS1 (Homo sapiens)      > 10000 nM

### Prompt Param item = CN(C)c1ccc(CNC(=O)C(=O)C2CCCCOCCOCc3ccccc3C(=O)N2)cc1 (centres unmarked) ; retrieve measured IC50.
### Response > 10000 nM

### Prompt Check `Cc1cc2n(n1)-c1cccc(c1)OCCCCC[C@@H](C(=O)C(N)=O)NC2=O` too.
### Response < 3000 nM
